- system name: human PD-1 stably expressed on Jurkat/IL-2 reporter cells (Jurkat/PD-1 cells) (human, UniProt Q15116 25-288)
- Sequence (Q15116 25-288): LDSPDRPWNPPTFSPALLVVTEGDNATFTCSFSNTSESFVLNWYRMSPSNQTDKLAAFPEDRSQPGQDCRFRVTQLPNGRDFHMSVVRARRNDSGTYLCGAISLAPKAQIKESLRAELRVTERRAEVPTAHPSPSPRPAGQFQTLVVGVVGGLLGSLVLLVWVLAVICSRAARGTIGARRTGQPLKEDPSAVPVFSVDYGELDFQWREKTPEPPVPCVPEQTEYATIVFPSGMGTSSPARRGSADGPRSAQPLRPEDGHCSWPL
- measurement notes: flow cytometry, Jurkat/PD-1 cells
If the reported MFI at 20 nM conc. equals or exceeds 100000 MFI, assign True. If not, assign False.

>  <binder>
variant PD-L1 ECD-Fc N45D, Q89R, I98V (Fc fusion, not shown: a dimerising Fc or GST) FTVTVPKDLYVVEYGSNMTIECKFPVEKQLDLAALIVYWEMEDKDIIQFVHGEEDLKVQHSSYRQRARLLKDQLSLGNAALQITDVKLRDAGVYRCMVSYGGADYKRITVKVNAPYNKINQRILVVDPVTSEHELTCQAEGYPKAEVIWTSSDHQVLSGKTTTTNSKREEKLFNVTSTLRINTTTNEIFYCTFRRLDPEENHTAELVIPELPLAHPPNER

>  <class>
False

$$$$
>  <binder>
variant PD-L1 ECD-Fc K23N, N45D, Q73R, T163I (Fc fusion, not shown: a dimerising Fc or GST) FTVTVPKDLYVVEYGSNMTIECNFPVEKQLDLAALIVYWEMEDKDIIQFVHGEEDLKVQHSSYRQRARLLKDRLSLGNAALQITDVKLQDAGVYRCMISYGGADYKRITVKVNAPYNKINQRILVVDPVTSEHELTCQAEGYPKAEVIWTSSDHQVLSGKTTITNSKREEKLFNVTSTLRINTTTNEIFYCTFRRLDPEENHTAELVIPELPLAHPPNER

>  <class>
True

$$$$
>  <binder>
variant PD-L1 ECD-Fc N45D, G102D, R194W, R195G (Fc fusion, not shown: a dimerising Fc or GST) FTVTVPKDLYVVEYGSNMTIECKFPVEKQLDLAALIVYWEMEDKDIIQFVHGEEDLKVQHSSYRQRARLLKDQLSLGNAALQITDVKLQDAGVYRCMISYGDADYKRITVKVNAPYNKINQRILVVDPVTSEHELTCQAEGYPKAEVIWTSSDHQVLSGKTTTTNSKREEKLFNVTSTLRINTTTNEIFYCTFWGLDPEENHTAELVIPELPLAHPPNER

>  <class>
False

$$$$
>  <binder>
variant PD-L1 ECD-Fc E27D, N45D, T183A, I188V (Fc fusion, not shown: a dimerising Fc or GST) FTVTVPKDLYVVEYGSNMTIECKFPVDKQLDLAALIVYWEMEDKDIIQFVHGEEDLKVQHSSYRQRARLLKDQLSLGNAALQITDVKLQDAGVYRCMISYGGADYKRITVKVNAPYNKINQRILVVDPVTSEHELTCQAEGYPKAEVIWTSSDHQVLSGKTTTTNSKREEKLFNVTSTLRINATTNEVFYCTFRRLDPEENHTAELVIPELPLAHPPNER

>  <class>
True

$$$$

Now take the following binder into account.
# bool: MFI at 20 nM conc. of variant PD-L1 ECD-Fc M41K, D43G, N45D, R64S, S99G (Fc fusion, not shown: a dimerising Fc or GST) FTVTVPKDLYVVEYGSNMTIECKFPVEKQLDLAALIVYWEKEGKDIIQFVHGEEDLKVQHSSYSQRARLLKDQLSLGNAALQITDVKLQDAGVYRCMIGYGGADYKRITVKVNAPYNKINQRILVVDPVTSEHELTCQAEGYPKAEVIWTSSDHQVLSGKTTTTNSKREEKLFNVTSTLRINTTTNEIFYCTFRRLDPEENHTAELVIPELPLAHPPNER >= 100000 MFI
True

All values here come from patent US20260062456A1.
